Target: human ether-à-go-go-related gene (hERG) potassium channel (human);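 note: peak tail current of the secondary pulse compared with the same well before compound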
Sequence (Q12809 whole entry, looked up): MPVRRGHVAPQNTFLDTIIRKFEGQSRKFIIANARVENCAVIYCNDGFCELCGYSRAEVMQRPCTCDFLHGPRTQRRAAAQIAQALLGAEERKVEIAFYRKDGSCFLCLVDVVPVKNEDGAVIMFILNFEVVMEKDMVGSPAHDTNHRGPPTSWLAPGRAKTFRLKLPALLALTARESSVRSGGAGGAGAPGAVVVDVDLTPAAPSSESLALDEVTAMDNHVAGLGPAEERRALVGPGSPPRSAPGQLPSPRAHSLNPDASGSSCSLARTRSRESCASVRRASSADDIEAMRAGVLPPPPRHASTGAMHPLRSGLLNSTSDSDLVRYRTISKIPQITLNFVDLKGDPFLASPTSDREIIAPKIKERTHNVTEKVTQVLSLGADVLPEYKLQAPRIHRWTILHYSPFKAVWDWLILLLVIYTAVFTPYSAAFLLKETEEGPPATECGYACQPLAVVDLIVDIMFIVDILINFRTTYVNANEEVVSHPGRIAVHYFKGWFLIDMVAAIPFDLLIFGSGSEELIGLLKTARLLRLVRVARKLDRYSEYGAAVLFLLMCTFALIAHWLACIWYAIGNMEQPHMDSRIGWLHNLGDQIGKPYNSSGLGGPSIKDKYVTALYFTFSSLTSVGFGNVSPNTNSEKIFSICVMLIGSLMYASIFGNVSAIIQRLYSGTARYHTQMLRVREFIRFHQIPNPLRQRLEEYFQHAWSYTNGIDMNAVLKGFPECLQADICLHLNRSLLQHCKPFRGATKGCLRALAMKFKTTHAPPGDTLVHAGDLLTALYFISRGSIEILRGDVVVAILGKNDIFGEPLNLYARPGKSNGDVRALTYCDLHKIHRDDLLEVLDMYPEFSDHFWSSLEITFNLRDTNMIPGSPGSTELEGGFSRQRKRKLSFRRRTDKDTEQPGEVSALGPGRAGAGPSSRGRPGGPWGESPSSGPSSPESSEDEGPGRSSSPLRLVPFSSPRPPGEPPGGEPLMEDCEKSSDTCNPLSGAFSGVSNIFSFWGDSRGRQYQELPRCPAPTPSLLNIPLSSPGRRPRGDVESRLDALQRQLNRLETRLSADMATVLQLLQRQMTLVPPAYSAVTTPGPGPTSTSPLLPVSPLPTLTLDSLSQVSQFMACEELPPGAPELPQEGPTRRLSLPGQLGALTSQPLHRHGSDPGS
Test: primary screen, population patch clamp on CHO cells stably expressing hERG; higher = less effect of the substance
Out of some 310,000 compounds screened, about 14,000 (4.5%) showed an effect of 50% or more. Effects have a minus sign here. Only a selection was taken, and strong results are over-represented in it overall.
Threshold rule: hERG current change (%, negative = inhibition) at 10uM greater than or equal to -40% is YES; below that, NO.

Look over these answered cases.
{"columns": ["smiles_repr", "assayed_system", "label"],
 "data": [
  ["Cc1nn(C(C)C)c(C)c1CN1CCC(C(=O)Nc2cccc(-c3cccc(F)c3)c2)CC1", "human ether-à-go-go-related gene (hERG) potassium channel (human)", "NO"],
  ["CCS(=O)(=O)N1CCC(C(=O)Nc2cccc(F)c2)CC1", "human ether-à-go-go-related gene (hERG) potassium channel (human)", "YES"],
  ["CCOC(=O)C1(Cc2cccc(F)c2)CCN(Cc2c(C)nn(CC)c2C)CC1", "human ether-à-go-go-related gene (hERG) potassium channel (human)", "NO"]
]}

Input line: Check if hERG current change (%, negative = inhibition) at 10uM >= -40% (inclusive). Item: `CCCCNC(=S)NNC(=O)c1ccc2c(c1)OCO2`
Output line: YES

Input line: Check if hERG current change (%, negative = inhibition) at 10uM >= -40% (inclusive). Item: `COc1cccc(-c2cccc(NC(=O)C3CCN(Cc4nccs4)CC3)c2)c1`
Output line: YES

Input line: Check if hERG current change (%, negative = inhibition) at 10uM >= -40% (inclusive). Item: `CCn1nc(C)c(CN2CCC(C(=O)Nc3cccc(-c4cccc(F)c4)c3)CC2)c1C`
Output line: NO

Input line: Check if hERG current change (%, negative = inhibition) at 10uM >= -40% (inclusive). Item: `CCc1ccc(CN2CCC(C(=O)Nc3cccc(-c4nnc(C)s4)c3)CC2)o1`
Output line: YES
